Record form. Attribute: protein stability index. Fill in for each entry.
B1: RSAD1 (parent)
chain: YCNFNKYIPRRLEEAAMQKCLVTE

# Variants of: B1
# Experiment: protein stability index of a GFP-peptide fusion (GPS, HEK-293T) (PSI 1-6); higher = more stable;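 also: lentivirally expressed fusions sorted by FACS into six bins by GFP to DsRed ratio, PSI derived from sequencing read proportions per bin multiplied by bin number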
# Condition set: c terminus: a fixed tail appended
Answers are plain numbers.

# annotated cases, reported protein stability index shown
I would be grateful if you could share the reported protein stability index for F4I .
1.67

Try this variant too: R11E
2.17

What do you have for Q18P ?
1.96

Then this variant: E24T
1.44

Consider next the variant T23K in the same way.
2.27

// input: 7 variants below; output: protein stability index for each
1. C2E
2. P9A
3. Y7F
4. E14Y
5. R10P
6. R11W
7. E14H

1. 2.98
2. 2.11
3. 3.98
4. 1.33
5. 1.74
6. 2.73
7. 1.65

// input: 3 variants below; output: protein stability index for each
1. T23I
2. C2T
3. E14N

1: 2.22; 2: 2.2; 3: 3.14
